- System: HCC1395
- ASSAY TEXT: cells
- Assay type: cell-based
- CONDITION: Homo sapiens, 72 h; HCC1395, three-day drug treatment; read-out: gIC50
ATTRIBUTE MEASURED: IC50 (nM)

| STRUCTURE SMILES | RESULT UNITS | VALUE OBSERVED |
| --- | --- | --- |
| COc1ncc(-c2ccc3nccc(-c4ccnnc4)c3c2)cc1NS(=O)(=O)c1ccc(F)cc1F | nM | 50.3 |

---

- Tested on: CAMA1
- ASSAY TEXT: cells
- Format: cell-based
- CONDITION: Homo sapiens, CAMA-1, 72 h; CAMA1, three-day drug treatment; read-out: gIC50
ATTRIBUTE MEASURED: IC50 (nM)

| MOLECULE | ASSAY TARGET | RESULT UNITS | VALUE OBSERVED |
| --- | --- | --- | --- |
| COc1ncc(-c2ccc3nccc(-c4ccnnc4)c3c2)cc1NS(=O)(=O)c1ccc(F)cc1F [Compound B] | CAMA1 | nM | 89.1 |

---

- Tested on: ZR75B
- ASSAY TEXT: cells
- Type: cell-based
- CONDITION: Homo sapiens, ZR-75B, 72 h, three-day drug treatment, read-out: gIC50
pIC50: −log10 of the molar value.
ATTRIBUTE MEASURED: pIC50

| STRUCTURE SMILES | ATTRIBUTE MEASURED | VALUE OBSERVED |
| --- | --- | --- |
| COc1ncc(-c2ccc3nccc(-c4ccnnc4)c3c2)cc1NS(=O)(=O)c1ccc(F)cc1F | pIC50 | 8.35 |

---

- System: UACC-812
- ASSAY TEXT: Panel A proliferation assay (CellTiter-Glo); HER2 Gain ≧5, KRAS WT, PIK3CA WT
- Type: cell-based, human
- CONDITION: Homo sapiens; UACC-812, high seeding density, 72 h; read-out: High Density gIC50
pIC50: −log10 of the molar value.
ATTRIBUTE MEASURED: pIC50

| STRUCTURE SMILES | VALUE OBSERVED |
| --- | --- |
| COc1ncc(-c2ccc3nccc(-c4ccnnc4)c3c2)cc1NS(=O)(=O)c1ccc(F)cc1F | 10.00 |

---

- Tested on: BT-20
- ASSAY TEXT: Panel A proliferation assay (CellTiter-Glo); HER2 2 copies, KRAS WT, PIK3CA p.P539R
- Assay type: cell-based, human
- CONDITION: Homo sapiens; BT-20, low seeding density, 72 h; read-out: Low Density gIC50
pIC50: −log10 of the molar value.

| STRUCTURE SMILES | pIC50 |
| --- | --- |
| COc1ncc(-c2ccc3nccc(-c4ccnnc4)c3c2)cc1NS(=O)(=O)c1ccc(F)cc1F | 8.20 |
